Quick reference for melting point among some compounds

>  <compound>
Cc1ccccc1Sc1c(O)c2c(Cl)cc(Cl)cc2[nH]c1=O

>  <melting point>
> 300 °C

$$$$
>  <compound>
Oc1cc(-n2cc3c(n2)CCCC3)c(Cl)cc1Cl

>  <melting point>
84 to 86 °C

$$$$
>  <compound>
COC(=O)c1cc(C(C)(C)C)c(OC(=O)c2cc(C(C)(C)C)c(O)c(C(C)(C)C)c2)c(C(C)(C)C)c1

>  <melting point>
206 to 209 °C

$$$$
>  <compound>
Nc1ccc(C(=O)c2ccccc2F)cc1

>  <melting point>
128 to 130 °C

$$$$

Note to self: melting point recorded for COC(=O)c1ccc2c(C(C(=O)NS(=O)(=O)c3ccc(C)cc3OC)c3ccc4c(c3)OCO4)cn(C)c2c1 (configuration not stated) was 184 to 185 °C

Note to self: melting point recorded for CC1(C)CC(CS(=O)(=O)NCC(=O)O)c2cc(OCc3ccccc3)ccc2O1 (configuration not stated) was 131 °C

Note to self: melting point recorded for COc1cc(O)c([N+](=O)[O-])c2ccccc12 was 128 to 130 °C

---

readout_kind: melting point

A selection of reference data follows.
>  <compound>
CNC(=O)c1ccc2c(c1)c(-c1cc3cccnc3[nH]1)cn2C

>  <assay_result>
186 °C

$$$$
>  <compound>
COc1cc2c(cc1N1CCN(CC3Cc4ccccc4C3)CC1)OCCO2

>  <assay_result>
176 to 178 °C

$$$$
>  <compound>
O=C(O)CCc1conc1-c1ccc(Cl)c(F)c1

>  <assay_result>
148 to 149 °C

$$$$
>  <compound>
Nc1c([N+](=O)[O-])cc(F)c(Cl)c1Br

>  <assay_result>
146 to 147 °C

$$$$

Note to self: melting point recorded for CC(=O)Nc1sc2c(c1C(=O)c1ccco1)CCCC2 was 126 to 127 °C

Note to self: melting point recorded for Cc1ccccc1C=CC=C1SC(=S)N(CC(=O)O)C1=O was 210 to 217 °C

Note to self: melting point recorded for CCCCCC(=O)N1C(=O)CC[C@H]1C(=O)O was 85 to 90 °C

---

Quick reference for melting point among some molecules

>  <molecule>
O=C(CCc1ccccc1)NC(NC(=S)Nc1cccc([N+](=O)[O-])c1)C(Cl)(Cl)Cl (centres undefined)

>  <assay_result>
171 to 173 °C

$$$$
>  <molecule>
CCC(C(=O)O)c1cccc(C(=O)c2cc3cc(C(=O)O)sc3s2)c1 (centres undefined)

>  <assay_result>
240 °C

$$$$
>  <molecule>
O=C(CNC(=O)C(Cc1ccccc1)CP(=O)(O)O)OCc1ccccc1 (centres undefined)

>  <assay_result>
250 °C

$$$$
>  <molecule>
CCOC(=O)C[C@H]1CC[C@H](CNC(C)=O)CC1

>  <assay_result>
74 to 76 °C

$$$$
>  <molecule>
NS(=O)(=O)c1ccccc1CN1CCCC1=O

>  <assay_result>
149 to 151 °C

$$$$

Note to self: melting point recorded for CN1C=Nc2cc(Cl)c3cc4ccccc4cc3c2C1 was 236 °C

Note to self: melting point recorded for CNCC(=O)N1c2ccccc2N(C)S(=O)(=O)c2ccccc21 was 135 to 137 °C

Note to self: melting point recorded for Cc1nc(-c2cccc(NC(=O)N3CCc4c(cnc5[nH]ncc45)C3)c2)no1 was > 140 °C

Note to self: melting point recorded for O=C(c1cc(-n2cnnn2)ccc1O)N1CCC(CCO)(c2ccccc2)C1 (centres undefined) was 86 to 96 °C

---

Quick reference for melting point among some compounds

A selection of reference data follows.
>  <compound>
CSCCn1nc(O)c2[nH]c3cc(Cl)ccc3c(=O)c2c1=O

>  <melting point>
275 to 277 °C

$$$$
>  <compound>
Oc1nc(-c2ncccn2)nc(O)c1-c1cccs1

>  <melting point>
244 to 246 °C

$$$$
>  <compound>
CC(C)(C)C(NC(=O)c1cc(Cl)cc(Cl)c1)Nc1c(Nc2cccnc2)c(=O)c1=O (centres undefined)

>  <melting point>
260 to 262 °C

$$$$
>  <compound>
CC1(C)CC(NC(=O)ON(Cc2ccccc2)Cc2ccccc2)CC(C)(CNC(=O)ON(Cc2ccccc2)Cc2ccccc2)C1 (centres undefined)

>  <melting point>
139 to 146 °C

$$$$
>  <compound>
CCC(C)(C)NC(=S)Nc1cc(Br)cc(Br)c1

>  <melting point>
147 to 149 °C

$$$$
>  <compound>
CCOC(=O)C1=C(C)Nc2ccnc(OCC)c2C1c1ccccc1C(F)(F)F (centres undefined)

>  <melting point>
91 to 94 °C

$$$$
>  <compound>
O=C(O)c1ccc2c(c1)C(=O)C1(CC1)O2

>  <melting point>
215 to 228 °C

$$$$
>  <compound>
COc1ccc2cc3c(Nc4ccc(Cl)cc4Cl)c(C#N)cnc3cc2c1

>  <melting point>
> 260 °C

$$$$

Note to self: melting point recorded for CN1CCN(c2cccc3c2C=C(C#N)CC3)CC1 was 104 to 105 °C

---

Quick reference for melting point among some compounds

>  <compound>
Cc1ncn(-c2ccc(C#N)c(F)c2)n1

>  <assay_result>
133 to 134 °C

$$$$
>  <compound>
Cc1cccc(C)c1NC(=O)/C=C1\SC(C)C(=O)N1C (stereo not drawn)

>  <assay_result>
220 to 222 °C

$$$$
>  <compound>
Cc1sc(-c2cccc(F)c2)nc1O

>  <assay_result>
162 to 163 °C

$$$$
>  <compound>
Cc1cc(COc2cccc3c2CN(C2CCC(=O)NC2=O)C3=O)nn1C (stereo not drawn)

>  <assay_result>
214 to 216 °C

$$$$
>  <compound>
CCCc1nn(C)c2c(=O)n(CCCOc3ccc(OC(C)(C)C(=O)O)cc3)c(CC)nc12

>  <assay_result>
124 to 126 °C

$$$$

Note to self: melting point recorded for Cc1nc(-c2ccc3ccc(Cn4c(C(C)C)nc5cc[nH]c(=O)c54)cc3c2)no1 was 214 to 215 °C

Note to self: melting point recorded for CCOC(=O)CNc1cc(F)ccc1C(=O)O was 123 to 125 °C

Note to self: melting point recorded for Cc1cc(OCCCCOc2ccc([N+](=O)[O-])c(C)c2)ccc1[N+](=O)[O-] was 108 to 110 °C

---

readout_kind: melting point

>  <compound>
Cc1ccc(S(=O)(=O)N2CCc3ccccc3C(Oc3cccc(C(F)(F)F)c3)C2)cc1 (configuration not stated)

>  <melting point>
112 to 114 °C

$$$$

Here's the next entry for you.
Note to self: melting point recorded for C=CCn1c(=O)n(S(=O)(=O)c2ccc(Cl)cc2)c(=O)c2ccc(Cl)cc21 was 161 to 163 °C

---

readout_kind: melting point

A selection of reference data follows.
>  <compound>
CCCc1nc2c(N)nc3cc(CCc4cccnc4)ccc3c2n1NC(C)C

>  <melting point>
100 to 103 °C

$$$$
>  <compound>
Cc1nc(-c2cccs2)c2nc(-c3ccccc3)cc-2[nH]1

>  <melting point>
178 to 179 °C

$$$$
>  <compound>
O=C1CCCCCN1CNC(=S)NCN1CCCC1=O

>  <melting point>
147 to 148 °C

$$$$
>  <compound>
Cc1oc(-c2ccc(S(C)(=O)=O)cc2)c(Oc2ccc(Cl)cc2)c(=O)c1Cl

>  <melting point>
274 °C

$$$$
>  <compound>
CN(C)c1ccc(CNC(=O)CNC(=O)Nc2ccc(C(=N)N)cc2)cc1

>  <melting point>
209 to 214 °C

$$$$
>  <compound>
CC(C)(C)CNC(=O)C1=C(C(=O)Nc2cc(OC3CCCC3)c(Cl)cc2F)CCCC1

>  <melting point>
173 to 175 °C

$$$$

Note to self: melting point recorded for O=C(O)c1ncn2c1[C@@H]1CCN1C(=O)c1ccccc1-2 was 232 °C

Note to self: melting point recorded for COC(=O)NC(C)c1cccc(-c2ccc(OC)cc2)c1 (stereo unspecified) was 117 to 119 °C

Note to self: melting point recorded for C#CCN1C(=O)COc2cc(F)c(NC(=O)C3CCCN3C(=O)OCc3ccccc3)cc21 (stereo unspecified) was 72 to 74 °C

---

Quick reference for melting point among some compounds

>  <compound>
CCOc1cc(-c2cc(C(F)(F)F)n3ncc(C(=O)Nc4cc(S(=O)(=O)NC(C)(C)CO)sc4Cl)c3n2)ccc1C(F)(F)F

>  <melting point>
234 °C

$$$$
>  <compound>
COc1c(F)ccc2c1C(C)(C)CC(O)(C(F)(F)F)C2Nc1cccc2c(=O)n(C)ncc12 (stereo not drawn)

>  <melting point>
262 to 263 °C

$$$$
>  <compound>
CN(C(=O)CCc1ccccc1)c1ccc(C(=O)NN=C2C(=O)Nc3ccc(I)cc32)cc1

>  <melting point>
239 °C

$$$$
>  <compound>
CC(C)(C)C(=O)c1c[nH]c2ncc(Cl)nc12

>  <melting point>
209 to 210 °C

$$$$

Note to self: melting point recorded for COCc1cc(O)n2nc(SCc3ccccc3)nc2n1 was 213 °C

Note to self: melting point recorded for CC(=CC#N)NCc1ccc(Cl)nc1 was 95 to 98 °C

Note to self: melting point recorded for COC(=O)c1nc(-c2ccc(Cl)c(OC)c2F)nc(N)c1OCC(F)(F)F was 123 to 125 °C

Note to self: melting point recorded for COc1ccc(C(=O)C(CCC(C)=O)c2ccc(OC)cc2)cc1 (stereo not drawn) was 62 to 65 °C

Note to self: melting point recorded for NS(=O)(=O)c1ccc(-n2nc(C(=O)O)cc2-c2ccccc2)cc1 was 188 to 191 °C
